Target: hMrgpMRGPRX2 (Homo sapiens)
Construct: expressed in transfected cells
Sequence (Q96LB1 whole entry): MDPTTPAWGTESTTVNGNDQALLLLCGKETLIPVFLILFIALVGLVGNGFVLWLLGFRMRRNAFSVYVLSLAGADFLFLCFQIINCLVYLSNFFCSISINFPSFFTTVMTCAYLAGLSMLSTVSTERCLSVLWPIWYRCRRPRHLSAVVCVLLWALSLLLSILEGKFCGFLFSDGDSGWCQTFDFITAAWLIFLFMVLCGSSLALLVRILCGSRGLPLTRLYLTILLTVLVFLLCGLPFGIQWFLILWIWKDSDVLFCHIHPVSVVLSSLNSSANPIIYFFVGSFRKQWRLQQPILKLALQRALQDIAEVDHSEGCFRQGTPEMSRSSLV
Assay: FLIPR intracellular calcium mobilization, antagonist activity in recombinant hMrgpMRGPRX2 expressing cells
Format: cell-based
Conditions: read-out: Human MrgprX2 Antagonist pIC50 (converted)
From the text: Potent and selective hMrgpMRGPRX2 compounds have been generated from compounds identified during a high throughput screening (HTS) campaign and followed up with cycles of structure activity based medicinal chemistry efforts. […] The assays used to determine potencies are functional read-out looking at intracellular calcium mobilization using the FLIPR™ technology. […]
Mark true for IC50 under 0.2 µM, false if at or over.

[[record]]
compound = "CCN(C[C@@H](O)C(F)(F)F)C(=O)Nc1ccc(Oc2c(F)cccc2F)cn1 [Compound E135]"
assigned_label = "true"

[[record]]
compound = "C[C@@H]1C[C@H]1C(=O)Nc1ccc(Oc2ccc(F)c(F)c2)cn1 (racemic) [Compound E048.1]"
assigned_label = "true"

[[record]]
compound = "CCN(C[C@@H](O)C(F)(F)F)C(=O)Nc1ccc(Oc2cc(C#N)ccc2F)cn1 [Compound E126]"
assigned_label = "false"

[[record]]
compound = "CCN(C[C@@H](O)C(F)(F)F)C(=O)Nc1ccc(Oc2cc(F)cc(F)c2)cn1 [Compound E117]"
assigned_label = "true"

[[record]]
compound = "CN(C[C@@H](O)C(F)(F)F)C(=O)Nc1cnc(Oc2cc(F)ccc2F)cn1 [Compound E245]"
assigned_label = "true"

[[record]]
compound = "Cn1cc(Oc2cnc(NC(=O)C3C(C)(C)C3(C)C)cn2)cn1 [Compound E221]"
assigned_label = "true"


IC50 strictly < 0.2 µM for this compound? CC1(C)C(C(=O)Nc2ccc(Nc3cncc(F)c3)cn2)C1(C)C [Compound E101]
false

IC50 strictly < 0.2 µM for this compound? CC1(C)C(C(=O)Nc2ccc(OCCO)cn2)C1(C)C [Compound E082]
false

IC50 strictly < 0.2 µM for this compound? CC1(C)C(C(=O)Nc2cnc(N3CCCC3)cn2)C1(C)C [Compound E233]
false
